Catalogue of EC50 readings, one per entry.
target: T1, Fc tagged human SIRPα v1 ECD recombinant protein (human, UniProt P78324 31-370); test: ELISA, coated Fc tagged human SIRPα v1 ECD
T1 construct: range 1-370; also called hFc tagged human SIRPα v1 ECD; not shown: human IgG Fc (hFc) tag
T1 sequence (P78324 31-370 limits assumed): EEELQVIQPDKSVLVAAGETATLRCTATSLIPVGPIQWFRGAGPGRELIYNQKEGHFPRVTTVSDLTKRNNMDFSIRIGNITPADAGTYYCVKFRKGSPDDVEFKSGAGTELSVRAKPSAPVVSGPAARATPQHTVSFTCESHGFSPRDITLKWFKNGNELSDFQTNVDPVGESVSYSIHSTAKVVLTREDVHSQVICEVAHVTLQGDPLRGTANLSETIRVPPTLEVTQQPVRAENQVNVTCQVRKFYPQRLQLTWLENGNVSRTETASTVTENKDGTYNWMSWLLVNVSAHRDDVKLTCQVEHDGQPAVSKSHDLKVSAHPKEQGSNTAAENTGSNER
Unit pM implied. Number only.

INSERT INTO results (binder, value_observed) VALUES
  ('005 (antibody, V domains shown, Mouse monoclonal hybridoma antibody purified on Protein A; also called antibody 005; hybridoma antibody 005) VH: EVKLVESGGGLVQPGGSLSLSCAASGFTFTDYYMSWVRQPPGKALEWLGFIKNEANGYTTESSASVKGRFTISRDNSQSILYLQMNALRAEDSATYYCARYDYYGSNYNWYFDAWGTGTTVTVSS VL: DIVMTQSQKFMSPSVGDRVSITCKASQNVRTAVAWYQQKPGQSPKVLIHLASKRHTGVPDRFTGSGSGTDFTLTISNVQSEDLADYFCLQHWIHPLTFGAGTKLELK', 130),
  ('025 (antibody, V domains shown, Mouse monoclonal hybridoma antibody; also called antibody 025; hybridoma antibody 025) VH: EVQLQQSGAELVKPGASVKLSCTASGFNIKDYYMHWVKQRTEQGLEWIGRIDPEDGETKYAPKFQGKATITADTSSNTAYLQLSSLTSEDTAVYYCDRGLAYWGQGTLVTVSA VL: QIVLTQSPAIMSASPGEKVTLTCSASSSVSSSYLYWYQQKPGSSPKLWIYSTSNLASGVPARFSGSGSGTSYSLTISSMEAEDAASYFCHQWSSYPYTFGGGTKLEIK', 40);

Could you now consider this next binder?
Query: Retrieve EC50 measured for 073 (antibody, V domains shown, Mouse monoclonal hybridoma antibody; also called antibody 073; hybridoma antibody 073) VH: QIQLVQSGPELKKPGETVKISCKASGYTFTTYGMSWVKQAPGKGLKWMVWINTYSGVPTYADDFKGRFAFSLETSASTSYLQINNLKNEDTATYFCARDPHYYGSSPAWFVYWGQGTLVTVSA VL: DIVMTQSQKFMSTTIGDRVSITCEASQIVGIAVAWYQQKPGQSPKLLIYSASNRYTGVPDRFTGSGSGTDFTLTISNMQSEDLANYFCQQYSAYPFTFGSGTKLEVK and print it.
Response: 30
